Entries and their activity, negative = inhibition values follow.
test.description: qHTS profiling for inhibitors of Plasmodium falciparum proliferation (AID 504749);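 also: 0% = DMSO vehicle and full inhibition = artemisinin control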
setup.conditions: P. falciparum in erythrocytes, SYBR Green DNA, 72 h; at 28.7 µM (top of the series); parasite line B
Inconclusive results are not listed.

molecule	unit	activity, negative = inhibition
O=C(OC[C@@H]1O[C@@](O)(COC(=O)c2cccnc2)[C@H](OC(=O)c2cccnc2)[C@H]1OC(=O)c1cccnc1)c1cccnc1	%	-0.864
CCN(CC)C(=O)Nc1ccc(OC[C@H](O)CNC(C)(C)C)c(C(C)=O)c1	%	-3.7
CC(=O)O[C@]1(C(C)=O)CCC2C3CCC4=CC(=O)CCC4(C)C3(F)C(O)CC21C (stereo partly specified)	%	-19
CO/N=C(/C(=O)N[C@@H]1C(=O)N2C(C(=O)O)=C(CSc3nc(C)c(CC(=O)O)s3)CS[C@H]12)c1csc(N)n1	%	4.95
CCCC(=O)Nc1c(I)cc(I)c(C[C@H](CC)C(=O)O)c1I	%	-1.24
COc1ccc(S(=O)(=O)N2c3ccc(Cl)cc3[C@](O)(c3ccccc3Cl)[C@@H]2C(=O)N2CCC[C@H]2C(N)=O)cc1OC	%	-6.86
CC(=O)NC1[C@H](O)C[C@@](O)(C(=O)O)O[C@H]1[C@H](O)[C@H](O)CO (stereo partly specified)	%	-8.73
O=c1[nH]c(=O)n(C2C[C@H](O)[C@@H](CO)O2)cc1C(F)(F)F (stereo partly specified)	%	-4.14
C[S+](C)CC[C@H](N)C(=O)O	%	12.4
OC[C@@H](O)C(O[C@@H]1O[C@@H](CO)[C@H](O)[C@H](O)[C@H]1O)[C@H](O)[C@@H](O)CO (stereo partly specified)	%	4.36
C[C@]12CC[C@@H]3c4ccc(O)cc4CC[C@H]3[C@@H]1CCC2OC(=O)CCC1CCCC1 (stereo partly specified)	%	-17
O=C1NC(=O)C2C3C=CC(C3)C12 (stereo unspecified)	%	20.1
C=C1[C@@H]2CC[C@H](C2)C1(C)C	%	-2.91
CCCCCCCCCCCCCCCC(=O)OCC(COP(=O)(O)OCC[N+](C)(C)C)OC(=O)CCCCCCCCCCCCCCC (stereo unspecified)	%	3.84
C[C@@H]1CC2C3CCC4=CC(=O)C=C[C@]4(C)[C@@]3(F)[C@@H](O)C[C@]2(C)[C@@]1(O)C(=O)COC(=O)c1cccc(S(=O)(=O)O)c1 (stereo partly specified)	%	-2.2
Cn1cc(C(=O)[C@@H]2CCc3[nH]cnc3C2)c2ccccc21	%	16.1
CCCCCOC(=O)Nc1nc(=O)n(C2O[C@H](C)[C@@H](O)[C@@H]2O)cc1F (stereo partly specified)	%	12.5
O=C(O)Cc1sc(-c2ccc(Cl)cc2)nc1-c1ccccc1	%	-3.92
O=c1ccn(C2OC(COP(=O)(O)OC3C(CO)OC(n4ccc(=O)[nH]c4=O)C3O)C(O)C2O)c(=O)[nH]1 (stereo unspecified)	%	10.1
CN1[C@@H]2CC[C@@H]1CC(OC(=O)[C@H](CO)c1ccccc1)C2 (stereo partly specified)	%	2.23
COC(=O)C1C2CC3c4[nH]c5cc(OC)ccc5c4CCN3CC2CC(OC)C1OC (stereo unspecified)	%	-6.18
OCC1O[C@@H](O[C@@H]2C(CO)OC(O)C(O)C2O)C(O)C(O)C1O (stereo partly specified)	%	4.55
CC1(C(=O)O)CCC2(C)CCC3(C)C(=CC(=O)C4C5(C)CCC(O)C(C)(C)C5CCC43C)C2C1 (stereo unspecified)	%	1.81
OCC1O[C@H](O[C@H]2C(O)C(O)C(O)O[C@@H]2CO)C(O)C(O)C1O (stereo partly specified)	%	6.42
CCCSS/C(CCO)=C(/C)N(C=O)Cc1cnc(C)nc1N	%	-22.2
C=C1/C(=C\C=C2/CCC[C@]3(C)[C@@H]([C@H](C)/C=C/[C@@H](O)C4CC4)CC[C@@H]23)C[C@@H](O)C[C@@H]1O	%	-23.6
